# IC50 against the protein given by its sequence, merged from multiple literature sources
Sequence of the target: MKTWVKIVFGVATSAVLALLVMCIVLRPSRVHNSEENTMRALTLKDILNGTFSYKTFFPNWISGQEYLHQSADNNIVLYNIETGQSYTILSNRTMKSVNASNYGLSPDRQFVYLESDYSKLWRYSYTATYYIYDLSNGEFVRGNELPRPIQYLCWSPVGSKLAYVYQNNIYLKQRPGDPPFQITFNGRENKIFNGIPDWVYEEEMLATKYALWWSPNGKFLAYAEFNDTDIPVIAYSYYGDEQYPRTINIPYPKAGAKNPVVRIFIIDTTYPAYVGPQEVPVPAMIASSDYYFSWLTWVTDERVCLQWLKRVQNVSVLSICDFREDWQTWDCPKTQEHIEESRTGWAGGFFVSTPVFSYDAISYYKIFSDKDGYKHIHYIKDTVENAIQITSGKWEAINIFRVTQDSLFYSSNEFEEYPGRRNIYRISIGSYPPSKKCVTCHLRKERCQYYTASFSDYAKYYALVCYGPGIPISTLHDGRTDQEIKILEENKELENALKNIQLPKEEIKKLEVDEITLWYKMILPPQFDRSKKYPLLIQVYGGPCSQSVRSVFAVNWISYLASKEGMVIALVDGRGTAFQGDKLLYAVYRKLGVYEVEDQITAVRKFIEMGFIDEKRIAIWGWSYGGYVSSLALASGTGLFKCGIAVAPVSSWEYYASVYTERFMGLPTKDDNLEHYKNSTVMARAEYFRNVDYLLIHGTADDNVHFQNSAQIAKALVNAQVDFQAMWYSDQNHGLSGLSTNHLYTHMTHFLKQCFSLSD

Answered cases to consult:
Please look up its IC50: C[C@H]1c2nnc(C(F)(F)F)n2CCN1C(=O)C[C@H](N)Cc1cc(F)c(F)cc1F
> 10 µM

What do we get for N[C@H](Cc1cc(F)ccc1F)[C@H]1CC[C@H](N(CCCC(F)(F)F)Cc2ccccc2)CC1 (mixture of isomers) ?
> 35 µM

What do we get for CN(C)C(=O)[C@@H](c1ccc(-c2ccc3nccn3n2)cc1)[C@H](N)C(=O)N1CC[C@H](F)C1 ?
> 40 µM

Others:
Please look up its IC50: Cc1ncsc1[C@H]1C[C@@H]1NC(=O)CC(C)(C)NCC(=O)N1C[C@@H](F)C[C@H]1C#N
> 20 µM

====

# pIC50 against UniProt Q12884, merged from multiple literature sources
pIC50: −log10 of the molar value.

Answered cases to consult:
Please look up its pIC50: N#C[C@@H]1CC(F)(F)CN1C(=O)CNC(=O)c1csc(CSc2ccc(Cl)c(Cl)c2)n1
6.92

What do we get for N[C@H](Cc1cc(F)ccc1F)C1CCN(c2ccccn2)CC1 ?
< 4.46

What do we get for CC(C)(CC(=O)N[C@H]1C[C@@H]1c1ccc(C(F)(F)F)cc1)NCC(=O)N1CCC[C@H]1C#N ?
< 4.70

What do we get for CN([C@H]1CC[C@H]([C@H](N)Cc2cc(F)ccc2F)CC1)S(=O)(=O)c1cccc(C#N)c1 ?
< 4.46

What do we get for N#Cc1cncc(N2CCC([C@H](N)Cc3cc(F)ccc3F)CC2)c1 ?
< 4.46

What do we get for Cc1nc(CN2C(=O)c3c(nc(N4CCC[C@@H](N)C4)n3Cc3cc(F)ccc3F)N3CCN=C23)nc2ccccc12 ?
5.00

Others:
Please look up its pIC50: N#C[C@@H]1CC(F)(F)CN1C(=O)CNC(=O)c1csc(Cc2ccc(F)c(F)c2)n1
7.33

What do we get for Cn1cc(C(=O)NCC(=O)N2CC(F)(F)C[C@H]2C#N)cc1-c1ccc(Cl)cc1 ?
6.98

What do we get for N[C@H]1C[C@@H](N2Cc3cn[nH]c3C2)CO[C@@H]1c1cc(F)c(F)cc1F ?
< 5.19

What do we get for N#Cc1ccc(S(=O)(=O)Cc2nc(C(=O)NCC(=O)N3CC(F)(F)C[C@H]3C#N)cs2)cc1 ?
8.05
